These data points were gathered from patent US20210102195A1.

Biological target: T1, human TIGIT (human, UniProt Q495A1 22-141, limits assumed)
T1 construct: also called hTIGIT
T1 sequence (looked up): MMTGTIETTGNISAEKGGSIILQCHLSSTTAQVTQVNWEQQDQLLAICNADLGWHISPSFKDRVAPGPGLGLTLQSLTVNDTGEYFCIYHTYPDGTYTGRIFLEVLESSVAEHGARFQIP
Assay: monovalent affinity of the hTIGIT IgGs; method not named in Example 14
In this section we review reported pKd values for a set of binders.
Would you please state pKd, meaning minus log10 of the concentration in mol/L, as a bare number?

So what does the record say about pKd for TIGIT-55-14 (antibody, V domains shown, hTIGIT IgG) VH: EVQLLESGGGLVQPGGSLRLSCAASGFMFSRYAMSWVRQAPGKGLEWVSSISGSGGTTYYADSVKGRFTISRDNSKNTLYLQMNSLRAEDTAVYYCARRGSGWYIDSWGQGTLVTVSS VL: DIQMTQSPSSLSASVGDRVTITCRASQSVSRYLNWYQQKPGKAPKLLIYGSSNLQSGVPSRFSGSGSGTDFTLTISSLQPEDFATYYCQESYSTPFTFGGGTKVEIK ? 6.86

Reported pKd, binder TIGIT-55-08 (antibody, V domains shown, hTIGIT IgG) VH: EVQLLESGGGLVQPGGSLRLSCAASGFMFSDYAMSWVRQAPGKGLEWVSGISGSGGYTYYADSVKGRFTISRDNSKNTLYLQMNSLRAEDTAVYYCTRSWYYYYGMDVWGQGTLVTVSS VL: DIQMTQSPSSLSASVGDRVTITCRAGQSIRSYLNWYQQKPGKAPKLLIYASSNLQSGVPSRFSGSGSGTDFTLTISSLQPEDFATYYCQQSYSTPLLTFGGGTKVEIK : ____ 6.95

Would you kindly share the measured pKd for TIGIT-55-01 (antibody, V domains shown, hTIGIT IgG) VH: EVQLLESGGGLVQPGGSLRLSCAASGFTFGSYGMSWVRQAPGKGLEWVSSISGSGSTTYYADSVKGRFTISRDNSKNTLYLQMNSLRAEDTAVYYCARVAGSSGWAFDYWGQGTLVTVSS VL: DIQMTQSPSSLSASVGDRVTITCRASQAISNYLNWYQQKPGKAPKLLIYAASRLQSGVPSRFSGSGSGTDFTLTISSLQPEDFATYYCQESYSTPFTFGGGTKVEIK ? 7.80

Give its pKd value. Item: TIGIT-55-02 (antibody, V domains shown, hTIGIT IgG) VH: EVQLLESGGGLVQPGGSLRLSCAASGLTFSNYAMTWVRQAPGKGLEWVSGISRSGGSTYYADSVKGRFTISRDNSKNTLYLQMNSLRAEDTAVYYCATLRLYSSGGGIDYWGQGTLVTVSS VL: DIQMTQSPSSLSASVGDRVTITCRASQYISTYLNWYQQKPGKAPKLLIYAASSLQGGVPSRFSGSGSGTDFTLTISSLQPEDFATYYCQQNYITPLTFGGGTKVEIK 6.85

Recorded pKd of TIGIT-55-11 (antibody, V domains shown, hTIGIT IgG) VH: EVQLLESGGGLVQPGGSLRLSCAASGFTFTNYGMSWVRQAPGKGLEWVSSISGSGSTTYYADSVKGRFTISRDNSKNTLYLQMNSLRAEDTAVYYCASVKRWGYYFNWWGQGTLVTVSS VL: DIQMTQSPSSLSASVGDRVTITCRASQNINYYLNWYQQKPGKAPKLLIYGASSLQNGVPSRFSGSGSGTDFTLTISSLQPEDFATYYCQQSYITPYTGGGTKVEIK , please. 6.49

What measured pKd goes with TIGIT-55-12 (antibody, V domains shown, hTIGIT IgG) VH: EVQLLESGGGLVQPGGSLRLSCAASGFTLSSYAMAWVRQAPGKGLEWVSTLSGSGGSTYYADSVKGRFTISRDNSKNTLYLQMNSLRAEDTAVYYCARVRVGAYDAFDIWGQGTLVTVSS VL: DIQMTQSPYSLSASVGDRVTITCRASQSIRRYLNWYQQKPGKAPKLLIYRASTLQTGVPSRFSGSGSGTDFTLTISSLQPEDFATYYCQQTYSSPFTFGGGTKVEIK ? 6.83

# input binder: TIGIT-55-13 (antibody, V domains shown, hTIGIT IgG) VH: EVQLLESGGGLVQPGGSLRLSCAASGFTFSTYGMNWVRQAPGKGLEWVSTISGSGGSTYFADSVKGRFTISRDNSKNTLYLQMNSLRAEDTAVYYCARNSGWFMPFDYWGQGTLVTVSS VL: DIQMTQSPSSLSASVGDRVTITCRTSQSISTYLNWYQQKPGKAPKLLIYATSRLQSGVPSRFSGSGSGTDFTLTISSLQPEDFATYYCQQSYTTPLTFGGGTKVEIK ; wanted: its pKd 6.95

I'd like to know its pKd. The binder in question is TIGIT-55-07 (antibody, V domains shown, hTIGIT IgG) VH: EVQLLESGGGLVQPGGSLRLSCAASGFTFSSYGMTWVRQAPGKGLEWVSAISGRGSSTYYADSVKGRFTISRDNSKNTLYLQMNSLRAEDTAVYYCARTPYRSGWADYWGQGTLVTVSS VL: DIQMTQSPSSLSASVGDRVTITCRASQNIKTYLNWYQQKPGKAPKLLIYAASSLHTGVPSRFSGSGSGTDFTLTISSLQPEDFATYYCQQTYSIPQTFGGGTKVEIK 6.64

Quick one: pKd for TIGIT-55-05 (antibody, V domains shown, hTIGIT IgG) VH: EVQLLESGGGLVQPGGSLRLSCAASGFVFSSYAMNWVRQAPGKGLEWVSTVSGSGGTTYYADSVKGRFTISRDNSKNTLYLQMNSLRAEDTAVYYCARAPYSSSSWFDYWGQGTLVTVSS VL: DIQMTQSPSSLSASVGDRVTITCRASQSVRSYLNWYQQKPGKAPKLLIYTATSLESGVPSRFSGSGSGTDFTLTISSLQPEDFATYYCQQSYGLPRTFGGGTKVEIK ? 7.01

Which pKd value belongs to TIGIT-55-06 (antibody, V domains shown, hTIGIT IgG) VH: EVQLLESGGGLVQPGGSLRLSCAASGFTFSRYTMNWVRQAPGKGLEWVSGISGSGGGAYYADSVKGRFTISRDNSKNTLYLQMNSLRAEDTAVYYCARNSYGPPRSFGMDVWGQGTLVTVSS VL: DIQMTQSPSSLSASVGDRVTITCRASQSISKYLNWYQQKPGKAPKLLIYGASSLRGGVPSRFSGSGSGTDFTLTISSLQPEDFATYYCQQSYRPPLTFGGGTKVEIK ? 6.82
